For each record, write down the corresponding DC50.
- target: CDK2 (Homo sapiens, UniProt P24941)
- Construct: endogenous in cells; host or cells: OVCAR-8
- assayExplanation: CDK2 degradation by immunoblotting in OVCAR-8 cells
- Format: cell-based
- experimentalParameters: 24 h

[[record]]
molecule = "Cc1cc(S(=O)(=O)NCCOCCOCCOCCOCCCc2ccc3c(c2)n(C)c(=O)n3C2CCC(=O)NC2=O)ccc1Nc1ncc2cc(C(F)F)c(=O)n([C@@H]3CCC[C@@]3(C)O)c2n1 (stereo partly drawn)"
propertylabel = "DC50"
valuemeasured = "< 10 nM"

[[record]]
molecule = "CC(C)NC(=O)O[C@@H]1CC[C@H](c2cc(CC(=O)c3cc(COCCCCCCCc4cccc5c4n(C)c(=O)n5C4CCC(=O)NC4=O)nn3C)[nH]n2)C1 (stereo partly drawn)"
propertylabel = "DC50"
valuemeasured = "< 10 nM"


// moving on: another record for DC50
Task: // fetch DC50; item: Cc1cc(S(=O)(=O)NCCO[C@H]2CC[C@H](CN3CCC(c4ccc5c(c4)n(C)c(=O)n5C4CCC(=O)NC4=O)CC3)CC2)ccc1Nc1ncc2ccc(=O)n(C3CCCC3)c2n1 (stereo partly drawn) ; system: CDK2 (Homo sapiens, UniProt P24941)
Result: < 10 nM

----------
- target: CDK1 (Homo sapiens, UniProt P06493)
- Construct: endogenous in cells; host or cells: OVCAR-8
- Sequence (P06493 whole entry): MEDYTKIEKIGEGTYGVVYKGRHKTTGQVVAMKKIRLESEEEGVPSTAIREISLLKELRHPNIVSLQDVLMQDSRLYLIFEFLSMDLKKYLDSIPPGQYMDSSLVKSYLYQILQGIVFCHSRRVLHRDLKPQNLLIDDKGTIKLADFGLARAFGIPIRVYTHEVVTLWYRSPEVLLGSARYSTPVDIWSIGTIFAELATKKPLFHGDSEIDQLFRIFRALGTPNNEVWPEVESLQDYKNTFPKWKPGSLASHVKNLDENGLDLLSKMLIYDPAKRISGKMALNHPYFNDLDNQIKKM
- assayExplanation: CDK1 degradation by immunoblotting in OVCAR-8 cells
- Assay type: cell-based
- experimentalParameters: 24 h
Please respond with reported DC50 for every item in the list.

Reference set (10 entries):
[[record]]
compound = "Cc1cc(S(=O)(=O)NCCOCCOCCOCCOCC(=O)N[C@H](C(=O)N2C[C@H](O)C[C@H]2C(=O)NCc2ccc(-c3scnc3C)cc2)C(C)(C)C)ccc1Nc1ncc2ccc(=O)n(C3CCCC3)c2n1 [I-139]"
target = "CDK1 (Homo sapiens, UniProt P06493)"
valuemeasured = "> 5 µM"

[[record]]
compound = "CC(C)NC(=O)O[C@@H]1CC[C@H](c2cc(CC(=O)c3cc(COCCCCCCCc4cccc5c4n(C)c(=O)n5C4CCC(=O)NC4=O)nn3C)[nH]n2)C1 (some centres unmarked) [I-101]"
target = "CDK1 (Homo sapiens, UniProt P06493)"
valuemeasured = "0.1 to 1 µM"

[[record]]
compound = "CC(C)NC(=O)O[C@@H]1CC[C@H](c2cc(NC(=O)c3ccnn3CCOCCOCCOCCOCCCc3ccc4c(c3)n(C)c(=O)n4C3CCC(=O)NC3=O)n[nH]2)C1 (some centres unmarked) [I-59]"
target = "CDK1 (Homo sapiens, UniProt P06493)"
valuemeasured = "> 5 µM"

[[record]]
compound = "CC(C)NC(=O)O[C@@H]1CC[C@H](c2cc(NC(=O)c3cnn(CCOCCOCCOCCOCCCc4ccc5c(c4)n(C)c(=O)n5C4CCC(=O)NC4=O)c3)[nH]n2)C1 (some centres unmarked) [I-77]"
target = "CDK1 (Homo sapiens, UniProt P06493)"
valuemeasured = "> 5 µM"

[[record]]
compound = "CC(C)NC(=O)O[C@@H]1CC[C@H](c2cc(NC(=O)c3cnn(CCCCCCCCCCCc4ccn5c(N6CCC(=O)NC6=O)cnc5c4)c3)[nH]n2)C1 [I-142]"
target = "CDK1 (Homo sapiens, UniProt P06493)"
valuemeasured = "> 5 µM"

[[record]]
compound = "Cc1cc(S(=O)(=O)NCCOCCOCCOCCOCCNc2cccc3c2C(=O)N(C2CCC(=O)NC2=O)C3=O)ccc1Nc1ncc2cc(C(F)F)c(=O)n([C@@H]3CCC[C@@]3(C)O)c2n1 (some centres unmarked) [I-17]"
target = "CDK1 (Homo sapiens, UniProt P06493)"
valuemeasured = "> 5 µM"

[[record]]
compound = "CC(C)NC(=O)O[C@@H]1CC[C@H](c2cc(NC(=O)c3cnn(CCCCCCCCCc4ccc5c(c4)n(C)c(=O)n5C4CCC(=O)NC4=O)c3)n[nH]2)C1 (some centres unmarked) [I-91]"
target = "CDK1 (Homo sapiens, UniProt P06493)"
valuemeasured = "> 5 µM"

[[record]]
compound = "CC(C)NC(=O)O[C@@H]1CC[C@H](c2cc(NC(=O)c3cnn(CCCCCCCCCCCc4ccc5c(c4)n(C)c(=O)n5C4CCC(=O)NC4=O)c3)[nH]n2)C1 (some centres unmarked) [I-96]"
target = "CDK1 (Homo sapiens, UniProt P06493)"
valuemeasured = "> 5 µM"

[[record]]
compound = "CC(C)NC(=O)O[C@@H]1CC[C@H](c2cc(CC(=O)c3cnn(CCOCCOCCOCCCc4ccc5c(N6CCC(=O)NC6=O)cncc5c4)c3)[nH]n2)C1 [I-73]"
target = "CDK1 (Homo sapiens, UniProt P06493)"
valuemeasured = "> 5 µM"

[[record]]
compound = "CC(C)NC(=O)O[C@@H]1CC[C@H](c2cc(NC(=O)c3cnn(CCCCCCCCCc4cccc5c4n(C)c(=O)n5C4CCC(=O)NC4=O)c3)[nH]n2)C1 (some centres unmarked) [I-92]"
target = "CDK1 (Homo sapiens, UniProt P06493)"
valuemeasured = "1 to 5 µM"


Please find the next compound below.
Task: Please give the documented DC50 of CC(C)NC(=O)O[C@@H]1CC[C@H](c2cc(NC(=O)c3cc(COCCCCCCCCCc4ccc5c(c4)n(C)c(=O)n5[C@H]4CCC(=O)NC4=O)nn3C)n[nH]2)C1 [I-99]
Result: > 5 µM

----------
- target: CDK1 (Homo sapiens, UniProt P06493)
- Construct: endogenous in cells; host or cells: OVCAR-8
- assayExplanation: CDK1 degradation by immunoblotting in OVCAR-8 cells
- Format: cell-based
- experimentalParameters: 24 h
propertyLabel: DC50

Consider the reported DC50 for these compounds:
[[record]]
compound = "Cc1cc(S(=O)(=O)NCCOCCOCCCc2ccc3c(c2)n(C)c(=O)n3C2CCC(=O)NC2=O)ccc1Nc1ncc2c(n1)N(C1CCCC1)C(=O)C21CC1 (centres unmarked)"
valuemeasured = "> 5 µM"

[[record]]
compound = "CN[C@@H](C)C(=O)N[C@H](C(=O)N1CCC[C@H]1c1nc(C(=O)c2cccc(OCCCCCCCCCCCn3cc(C(=O)Nc4cc([C@H]5CC[C@@H](OC(=O)NC(C)C)C5)n[nH]4)cn3)c2)cs1)C1CCCCC1"
valuemeasured = "1 to 5 µM"

[[record]]
compound = "CC(C)NC(=O)O[C@@H]1CC[C@H](c2cc(NC(=O)Cc3cnn(CCCCCCCCCc4ccc5c(c4)n(C)c(=O)n5C4CCC(=O)NC4=O)c3)[nH]n2)C1 (some centres unmarked)"
valuemeasured = "0.1 to 1 µM"

[[record]]
compound = "Cc1cc(S(=O)(=O)NCCOCCOCCOCCOCCCc2ccc3c(c2)n(C)c(=O)n3C2CCC(=O)NC2=O)ccc1Nc1ncc2c(C)cc(=O)n(C3CCCC3)c2n1 (centres unmarked)"
valuemeasured = "> 5 µM"

[[record]]
compound = "Cc1cc(S(=O)(=O)NCCOCCOCCCc2ccc3c(c2)n(C)c(=O)n3C2CCC(=O)NC2=O)ccc1Nc1ncc2ccc(=O)n(C3CCCC3)c2n1 (centres unmarked)"
valuemeasured = "1 to 5 µM"


Items follow; give DC50 for each.
1. Cc1cc(S(=O)(=O)NCCOCCOCCCc2cccc3c2n(C)c(=O)n3C2CCC(=O)NC2=O)ccc1Nc1ncc2cc(C(F)F)c(=O)n([C@@H]3CCC[C@@]3(C)O)c2n1 (some centres unmarked)
2. Cc1cc(S(=O)(=O)N[C@H]2CC[C@H](OCCOCCCc3ccc4c(c3)n(C)c(=O)n4C3CCC(=O)NC3=O)CC2)ccc1Nc1ncc2ccc(=O)n(C3CCCC3)c2n1 (some centres unmarked)
3. CC(C)NC(=O)O[C@H]1CC[C@@H](c2cc(NC(=O)c3ccnn3CCOCCOCCOCCOCCCc3ccc4c(c3)n(C)c(=O)n4C3CCC(=O)NC3=O)n[nH]2)C1 (some centres unmarked)
4. Cc1cc(S(=O)(=O)NCCOC2CCC3(CC2)CCN(CCCc2ccc4c(c2)n(C)c(=O)n4C2CCC(=O)NC2=O)CC3)ccc1Nc1ncc2ccc(=O)n(C3CCCC3)c2n1 (centres unmarked)

Result:
1. > 5 µM
2. 1 to 5 µM
3. > 5 µM
4. 1 to 5 µM

----------
Give measured DC50 for each item. Keep answers brief.
- target: CDK2 (Homo sapiens)
- Construct: endogenous in cells; host or cells: OVCAR-8
- assayExplanation: CDK2 degradation by immunoblotting in OVCAR-8 cells
- Type: cell-based
- experimentalParameters: 24 h

[[record]]
compound = "CC(C)NC(=O)O[C@H]1CC[C@@H](c2cc(NC(=O)c3cc(COCCCCCCCCCc4ccn5c(N6CCC(=O)NC6=O)cnc5c4)nn3C)[nH]n2)C1"
valuemeasured = "< 10 nM"

[[record]]
compound = "C[C@@]1(O)CCC[C@H]1n1c(=O)c(C(F)F)cc2cnc(NC3CCN(S(=O)(=O)CCCCCCCCCCNc4cccc5c4C(=O)N(C4CCC(=O)NC4=O)C5=O)CC3)nc21 (stereo partly drawn)"
valuemeasured = "10 to 100 nM"

[[record]]
compound = "Cc1cc(S(=O)(=O)NCCOCCOCCOCCOCC(=O)N[C@H](C(=O)N2C[C@H](O)C[C@H]2C(=O)NCc2ccc(-c3scnc3C)cc2)C(C)(C)C)ccc1Nc1ncc2ccc(=O)n(C3CCCC3)c2n1"
valuemeasured = "> 5000 nM"

[[record]]
compound = "CC(C)NC(=O)O[C@@H]1CC[C@H](c2cc(NC(=O)c3cnn(CCCCCCCCCC#Cc4cccn5c(N6CCC(=O)NC6=O)cnc45)c3)n[nH]2)C1"
valuemeasured = "10 to 100 nM"

[[record]]
compound = "CC(C)NC(=O)O[C@@H]1CC[C@H](c2cc(NC(=O)c3cnn(CCCCCCCCCCCc4ccn5c(N6CCC(=O)NC6=O)cnc5c4)c3)[nH]n2)C1"
valuemeasured = "10 to 100 nM"


Continue with the compound presented below.
Task: For Cc1cc(S(=O)(=O)NCCOC2CC3(C2)CN(CC#Cc2ccc4c(c2)n(C)c(=O)n4C2CCC(=O)NC2=O)C3)ccc1Nc1ncc2ccc(=O)n(C3CCCC3)c2n1 (stereo not drawn) , write its DC50.
Result: < 10 nM
